- Assay Target: S-phase kinase associated protein 2 (Skp2) (Homo sapiens, UniProt P61024+Q13309)
- Construct: GST-Skp2/Skp1; with Skp1; Cks1 (His6-Cks1)
- Sequence (Q13309 whole entry): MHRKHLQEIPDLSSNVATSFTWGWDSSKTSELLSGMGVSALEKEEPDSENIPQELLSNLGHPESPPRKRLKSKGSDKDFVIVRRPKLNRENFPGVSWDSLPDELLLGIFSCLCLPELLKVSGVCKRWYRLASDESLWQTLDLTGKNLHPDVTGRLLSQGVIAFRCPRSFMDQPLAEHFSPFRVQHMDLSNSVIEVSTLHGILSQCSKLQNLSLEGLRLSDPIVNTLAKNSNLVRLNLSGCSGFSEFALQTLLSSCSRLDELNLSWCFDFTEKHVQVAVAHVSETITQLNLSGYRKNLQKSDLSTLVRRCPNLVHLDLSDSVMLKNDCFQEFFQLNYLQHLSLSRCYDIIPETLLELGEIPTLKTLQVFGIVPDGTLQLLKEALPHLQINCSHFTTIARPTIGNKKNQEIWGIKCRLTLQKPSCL
- Sequence (P61024 2-79): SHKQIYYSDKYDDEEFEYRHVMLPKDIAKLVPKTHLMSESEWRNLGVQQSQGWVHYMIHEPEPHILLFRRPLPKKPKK
- Sequence (P63208 2-163 partner): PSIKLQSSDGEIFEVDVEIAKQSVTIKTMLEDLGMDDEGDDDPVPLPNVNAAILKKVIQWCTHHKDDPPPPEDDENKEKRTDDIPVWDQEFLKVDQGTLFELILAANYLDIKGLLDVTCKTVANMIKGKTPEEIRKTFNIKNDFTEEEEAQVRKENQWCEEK
- Test: HTRF Skp2/Skp1-Cks1 binding inhibition assay; also CETSA of Skp2 in SGC-7901 cells
Readout Name: IC50 (µM)

(P) Cc1ccc(S(=O)(=O)Nc2cccc3cccnc23)cc1 [Skp2-2]
(Q) C=CC(=O)Nc1cccc(-c2nnc(SCc3ccccc3)n2C)c1 [SYK-031]
Task: Which is greater in IC50, the first item P or the second item Q ? Select an item and report its label.
Output: P
(P: 27.8 µM, Q: 2.14 µM)

* * *

- Assay Target: S-phase kinase associated protein 2 (Skp2) (Homo sapiens, UniProt P61024+Q13309)
- Construct: GST-Skp2/Skp1; with Skp1; Cks1 (His6-Cks1)
- Test: HTRF Skp2/Skp1-Cks1 binding inhibition assay
Readout Name: pIC50
// pIC50 here means minus log10 of the molar concentration (mol/L)

Task: Fill blank: measured pIC50 of the compound `COC(=O)c1ccc(CCc2cc(O)ccc2O)cc1` is ____.
Output: 4.23

The measurements presented in this section are drawn from paper PMC8548536.
